tested on: MCF7 breast; assay: NCI tumour cell line growth inhibition, 48 h
Value kind: TGI

compound=N#Cc1ccc(/C=N/NC(=O)CSCC(=O)N/N=C/c2ccc(C#N)cc2)cc1 experimental_result="> 100 µM"
compound="O=C(CCCC1Cc2ccccc2C1=O)c1ccccc1 (stereo not drawn)" experimental_result="56.3 µM"
compound=Cc1cccc(C)c1NC(=O)/C(Cl)=C(/Cl)C(=O)O experimental_result="46.3 µM"
compound=OCCN1CN(c2nc(N3CN(CCO)C3)nc(N3CN(CCO)C3)n2)C1 experimental_result="46.9 µM"
compound="CC1=NC2(CCCCC2)N(Cl)C(=O)C1SC#N (stereo not drawn)" experimental_result="48.9 µM"
compound=O=C(/C=C/C=C/c1ccccc1)CCc1ccccc1 experimental_result="> 100 µM"
compound="CC1(CCc2ccccc2)CC1(Br)Br (stereo not drawn)" experimental_result="> 100 µM"
compound=N#Cc1ccc(OC(=O)c2ccc(N=C(N)N)cc2)cc1 experimental_result="> 100 µM"
compound=CN(C)CCCN=C(N)N experimental_result="> 100 µM"
compound="O=c1c2ncn(C3CCCCO3)c2n(-c2ccccc2)c(=S)n1-c1ccccc1 (stereo not drawn)" experimental_result="> 100 µM"
compound=CN(NC(=O)CC(=O)NN(C)C(=S)c1ccccc1)C(=S)c1ccccc1 experimental_result="> 100 µM"
compound=CC(C)=NNc1cnnc2ccc([N+](=O)[O-])cc12 experimental_result="> 100 µM"
compound=Cn1ccc2c(NCCN)c3c(c(NCCN)c21)C(=O)c1ccccc1C3=O experimental_result="7.22 µM"
compound="COc1ccc2c(c1)C1Oc3ccccc3CC1(O)CO2 (stereo not drawn)" experimental_result="> 100 µM"
compound=Cc1c(C)c2c(c(N)c1C#N)C(=O)N(OS(=O)(=O)c1ccccc1)C2=O experimental_result="> 100 µM"
compound=O=C1C=C(N2CCCC2)C(=O)c2c(O)ccc(O)c21 experimental_result="> 10 µM"
compound=O=C(Nc1ccccc1)c1cc(S(=O)(=O)Nc2n[nH]c(=O)[nH]2)c(SSc2cc(Cl)c(C(=O)Nc3ccccc3)cc2S(=O)(=O)Nc2n[nH]c(=O)[nH]2)cc1Cl experimental_result="> 100 µM"
compound="c1nncn1C12C3C4C5C3C1C5C42 (stereo not drawn)" experimental_result="> 100 µM"
compound=CCCCCCCCCNCCCCCCCCC experimental_result="3.3 µM"
compound=Fc1ccc(Oc2nccc(-c3c(-c4ccc(F)cc4)ncn3C3CCNCC3)n2)cc1 experimental_result="> 25 µM"
compound="O=C1C(=Cc2ccco2)C(=O)C2CCCCC12 (stereo not drawn)" experimental_result="> 100 µM"
compound="COC(=O)c1c(C)ccc2c(O)c3c(cc12)C(=O)c1c2c(cc(O)c1C3=O)C1(C)OC(C)(O2)C(O)C(N(C)C)C1O (stereo not drawn)" experimental_result="8.04 µM"
compound=O=S(=O)(O)c1ccc2c(N=Nc3ccccc3)c(O)c(S(=O)(=O)O)cc2c1 experimental_result="> 100 µM"
compound=Cc1ncc([N+](=O)[O-])n1CCNS(=O)(=O)CCCn1ccnc1[N+](=O)[O-] experimental_result="> 100 µM"
compound=CN(C)Cc1cc(C(C)(C)C)cc(CNC2CCCCC2)c1O experimental_result="> 100 µM"
compound="Fc1ccc(C2NC(=S)NC3=C2CCOc2c3ccc3ccccc23)cc1 (stereo not drawn)" experimental_result="> 100 µM"
compound=C=CCn1c(-c2ccccc2)cs/c1=N\C(P(=O)(O)O)P(=O)(O)O experimental_result="> 100 µM"
compound="CC1(C)CC(=O)C2=C(C1)NC(SCC(=O)O)=C(C#N)C2c1ccc(Br)cc1 (stereo not drawn)" experimental_result="> 100 µM"
compound="CCN1C(=O)N(CC)C2C1NN=c1s/c(=C3\\C(=O)N(CC(C)C)c4ccccc43)c(=O)n12 (stereo not drawn)" experimental_result="> 100 µM"
compound=CCOC(=O)Cc1csc(/N=C2\NC(=O)/C(=C3\C(=O)N(C)c4ccccc43)S2)n1 experimental_result="> 100 µM"
compound="C/C=C(\\C)C(=O)N[C@H]1[C@@H](OC(C)=O)C[C@]2(C)C3CC[C@@]4(C)C(CC[C@@H]4C(C)N(C)C)C3CCC2[C@H]1O (stereo partly drawn)" experimental_result="18.1 µM"
compound=C=C(Cl)COC(=O)Nc1cccc(Cl)c1 experimental_result="> 100 µM"
compound=N#Cc1nc(C(F)(F)F)oc1N experimental_result="> 100 µM"

* * *

system: HL-60(TB) leukemia; experiment: NCI tumour cell line growth inhibition, 48 h; in the data active means GI50 below about 0.43 µM; inactive means the rest
Outcome codes: active, inactive

compound=O=C(NC1CC1)c1ccc(-c2nc3ccc4[nH]ncc4c3c3c2CCCC3)cc1 class=inactive
compound=O=C(Nc1ccc(-n2cc(-c3ccncc3)c(-c3ccc(O)c(Cl)c3)n2)cc1)c1cc(Cl)cc(Cl)c1 class=inactive
compound=CCOC(=O)CCCn1c(SC)nc2cc(-c3ccco3)[nH]c2c1=O class=inactive
compound=COc1cc(NC(=O)c2cc(OC)c3ccn(C)c3c2)cc2c1C[C@]1(C)CC[C@@H](O)C(C)(C)[C@H]1O2 class=inactive
compound="COc1ccc(/C=C\\c2cc(OC)c(OC)c(OC)c2)cc1OC(=O)C(N)CCC(=O)O (stereo not drawn)" class=active
compound=C=C1C[C@@H]2C/C=C/C(=O)C/C(C)=C\C=C\C(=O)O[C@H](C=O)C/C(C)=C/[C@H](C1)O2 class=active
compound=C=C1CC[C@@]2(C#N)[C@H]3[C@H](CC[C@@H]2C)[C@@H](C)C[C@@H](CC(C)(C)C#N)[C@H]13 class=inactive
compound=O=C1/C(=C/c2ccc(O)c([N+](=O)[O-])c2)CCC/C1=C\c1ccc(O)c([N+](=O)[O-])c1 class=inactive
compound="CCCCCCCCCCC(C[N+](C)(C)C/C=C/c1ccccc1)C(O)c1ccccc1 (stereo not drawn)" class=inactive
compound=CC(=O)[CH-]C(=O)c1ccccc1.CC(=O)[CH-]C(=O)c1ccccc1.CC(=O)[CH-]C(=O)c1ccccc1.[Tl+3] class=inactive
compound="CC(=O)OCC1OC(OC2CC3C(C)(C)C(OC(C)=O)CC[C@]3(C)C3CCC45CC4(CC[C@H]5C(C)CC(O)[C@@H](O)C(C)(C)O)[C@]23C)C(O)C(O)C1O (stereo partly drawn)" class=inactive
compound=N=C1c2nc3n(c2C(=O)c2nc4n(c21)CCCC4)CCCC3 class=inactive
compound="N#CC1=C(N)NC(=S)NC12Nc1ccccc1O2 (stereo not drawn)" class=inactive
compound=COc1cc(Cl)cc(-c2nn(C(=O)NCCN3CCN(C)CC3)cc2-c2ccncc2)c1 class=inactive
compound="CC([C@H]1CCC2C3CCC4C[C@@H](NC=O)CC[C@]4(C)C3CC[C@@]21C)N(C)C (stereo partly drawn)" class=inactive
compound=CCN(CC)CCOc1ccc(Nc2ncc3cc(-c4ccc(O)cc4)c(=O)n(C)c3n2)cc1 class=inactive
compound=Nc1ccc(C(=O)c2ccc(N)c(Br)c2)cc1Br class=active
compound=CC(C)(C)C(=O)Nc1ccccc1I(=O)=O class=inactive

* * *

tested on: M14 melanoma; assay: NCI tumour cell line growth inhibition, 48 h
Value kind: log10 of TGI (log10 of the value in µM)

molecule="COC1/C=C\\C=C(/C)C(=O)Nc2cc3nc4ccc(Br)cc4oc-3c(c2=O)CC(C)CC(OC)C(O)C(C)/C=C(\\C)C1OC(N)=O (configuration not stated)" value_kind="log10 of TGI" experimental_result=0.73
molecule=CCCCCCCCCNCCCCCCCCC value_kind="log10 of TGI" experimental_result=0.50
molecule="OC(C1=C/C(=C\\c2ccncc2)c2ccccc21)c1ccncc1 (configuration not stated)" value_kind="log10 of TGI" experimental_result=1.44
molecule=N=C1c2nc3n(c2C(=O)c2nc4n(c21)CCCC4)CCCC3 value_kind="log10 of TGI" experimental_result=0.52
molecule=Cc1cc(C)c(O)c(CNCCCCCCNCc2cc(C)cc(C)c2O)c1 value_kind="log10 of TGI" experimental_result=0.56
molecule=COc1ccc2nc(-c3ccccc3)cc(Nc3ccc(C(C)=O)cc3)c2c1 value_kind="log10 of TGI" experimental_result=0.86
molecule="Cc1ccc(S(=O)(=O)N(CC(O)c2ccccc2)c2ccccc2F)cc1 (configuration not stated)" value_kind="log10 of TGI" experimental_result=1.50
molecule=Nc1nc(Nc2ccc3c(c2)CC[C@@H](N2CCCC2)CC3)nn1-c1cc2c(nn1)-c1ccccc1CCC2 value_kind="log10 of TGI" experimental_result=0.48
molecule=Cn1ccc2c(NCCN)c3c(c(NCCN)c21)C(=O)c1ccccc1C3=O value_kind="log10 of TGI" experimental_result=0.94

* * *

Reported TGI values are given for each entry in this list.
system: MDA-MB-231 breast; assay: NCI tumour cell line growth inhibition, 48 h
Value kind: TGI

compound=O=C(O)C(F)(F)C(F)(F)C(F)(F)C(F)(F)C(=O)O experimental_result="> 100 µM"
compound="O=C(CCCC1Cc2ccccc2C1=O)c1ccccc1 (stereo unspecified)" experimental_result="> 100 µM"
compound=O=C(NC1CC1)c1ccc(-c2nc3ccc4[nH]ncc4c3c3c2CCCC3)cc1 experimental_result="31.8 µM"
compound=C=C1C[C@@H]2C/C=C/C(=O)C/C(C)=C\C=C\C(=O)O[C@H](C=O)C/C(C)=C/[C@H](C1)O2 experimental_result="13.1 µM"
compound=NC(Cc1ccccc1)=NCC(=O)O experimental_result="> 100 µM"
compound=NCCCC(=O)Nc1ccncc1 experimental_result="> 100 µM"
